Data origin: ChEMBL document CHEMBL1155120

Some compounds, each annotated with its measured pIC50.
Test: Inhibition of human polymerase delta by scintillation proximity assay
pIC50: −log10 of the molar value.

- compound.smiles: "CN(Cc1cc2c(=O)c(C(=O)NCc3ccc(Cl)cc3)cn(C)c2o1)C[C@@H](O)c1ccco1"
  pIC50: "< 4.70"
- compound.smiles: "CN(Cc1cc2c(=O)c(C(=O)NCc3ccc(Cl)cc3)cn(C)c2o1)C[C@@H](O)c1ccccn1"
  pIC50: "< 4.70"

---

Test: Oral bioavailability in rat
Format: ADME, organism-based
Settings: in vivo

- compound.smiles: "CN(Cc1cc2c(=O)c(C(=O)NCc3ccc(Cl)cc3)cn(C)c2o1)C[C@@H](O)c1ccco1"
  bioavailability / %: 67

---

Experiment: Aqueous solubility of the compound
Format: physicochemical
endpoint.label: solubility (µM)

- compound.smiles: "CN(Cc1cc2c(=O)c(C(=O)NCc3ccc(Cl)cc3)cn(C)c2o1)C[C@@H](O)c1ccco1"
  unit.label: "µM"
  observed.result: 60
